biological target: Adenosine receptor A2a (Homo sapiens); assay: Inhibition of [3H]CGS21680 binding to human adenosine A2A receptor at 1 umol/L by scintillation counting
measureName: inhibition (%)
Answers are plain numbers, in %.

Answered examples (2):
>  <structureSmilesString>
COC(=O)c1ccc(OC)c2oc(C(=O)Nc3cccc(F)c3)cc12

>  <measuredOn>
Adenosine receptor A2a (Homo sapiens)

>  <inhibition, %>
86

$$$$
>  <structureSmilesString>
COc1ccc(-c2ccccc2)c2cc(C(=O)NN3CCOCC3)oc12

>  <measuredOn>
Adenosine receptor A2a (Homo sapiens)

>  <inhibition, %>
103

$$$$

Could you tell me inhibition for each of these molecules? They are listed below.
1. COc1ccc(-c2ccccc2)c2cc(C(=O)Nc3ccncc3)oc12
2. COc1ccc(-c2ccccc2)c2cc(C(=O)Nc3ccc(F)cc3)oc12

Marked response:
1. 100
2. 67
